- TEST_SYSTEM: T1, human IL6R (human, UniProt P08887 20-358, limits assumed)
- T1 construct: Antigen of the Biacore experiments
- T1 sequence (looked up): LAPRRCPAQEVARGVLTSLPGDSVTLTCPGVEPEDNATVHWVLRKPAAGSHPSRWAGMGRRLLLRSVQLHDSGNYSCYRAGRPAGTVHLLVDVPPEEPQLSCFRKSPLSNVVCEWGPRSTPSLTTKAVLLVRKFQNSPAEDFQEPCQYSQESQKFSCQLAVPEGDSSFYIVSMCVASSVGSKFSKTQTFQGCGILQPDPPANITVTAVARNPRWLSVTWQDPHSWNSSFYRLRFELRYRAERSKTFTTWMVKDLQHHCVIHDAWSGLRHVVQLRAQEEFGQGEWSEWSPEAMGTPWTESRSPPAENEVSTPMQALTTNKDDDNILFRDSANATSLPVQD
- EXPERIMENT: SPR (Biacore), periplasmic extract
Known koff of a selection of binders
REPORTED_METRIC: koff (s⁻¹)

{"BINDER": "IL6R65PMP13D3 (VHH) VHH: EVQLVESGGGLVQPGGSLRLSCAANGTTFKVNVMAWYRQAPGKGRELVAGVITGGTTNYADSVKGRFTISRDNAKNTLYLQMNSLRPEDTAVYYCAFVTTNSDYDLGRDYWGQGTLVTVSS", "REPORTED_METRIC": "koff", "REPORTED_RESULT": 0.00048}
{"BINDER": "IL6R65PMP12C8 (VHH) VHH: EVQLVESGGGLVQPGGSLRLSCAASGTVFKINAMAWYRQAPGKGRELVAGLVSAGTANYADSVKGRFTISRDNAKNTLYLQMNSLRPEDTAVYYCAFVTTNSDYDLGRDYWGQGTLVTVSS", "REPORTED_METRIC": "koff", "REPORTED_RESULT": 0.00066}
